# target: Prostaglandin G/H synthase 1 (Ovis aries)
# Sequence (P05979 whole entry): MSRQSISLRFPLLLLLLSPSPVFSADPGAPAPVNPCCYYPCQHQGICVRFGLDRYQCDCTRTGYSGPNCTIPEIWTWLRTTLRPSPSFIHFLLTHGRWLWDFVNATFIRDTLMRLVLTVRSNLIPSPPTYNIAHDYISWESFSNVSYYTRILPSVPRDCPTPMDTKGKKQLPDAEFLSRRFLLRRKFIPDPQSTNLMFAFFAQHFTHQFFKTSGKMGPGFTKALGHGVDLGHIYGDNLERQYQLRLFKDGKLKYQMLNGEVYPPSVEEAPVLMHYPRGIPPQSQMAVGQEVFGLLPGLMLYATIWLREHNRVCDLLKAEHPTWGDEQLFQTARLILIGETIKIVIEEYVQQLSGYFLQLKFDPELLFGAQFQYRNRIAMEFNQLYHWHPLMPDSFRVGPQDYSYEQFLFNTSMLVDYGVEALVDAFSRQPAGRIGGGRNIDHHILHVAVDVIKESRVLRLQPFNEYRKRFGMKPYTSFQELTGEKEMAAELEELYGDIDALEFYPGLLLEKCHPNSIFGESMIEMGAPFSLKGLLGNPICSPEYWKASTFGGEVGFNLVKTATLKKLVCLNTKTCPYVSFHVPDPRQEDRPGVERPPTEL
// reported IC50 for each item listed
Quick note: give the figure in nM, leave out the unit.

given-smiles | IC50 (nM)
COc1cc(/C=C/c2ccc([N+](=O)[O-])cc2)cc(OC)c1OC | 2670

Pending molecule:
Data request: Recall the recorded IC50 for COc1ccc(/C=C/c2ccc([N+](=O)[O-])cc2)cc1OC with Prostaglandin G/H synthase 1 (Ovis aries) and state it.
Data returned: 659

Origin of values: ChEMBL document CHEMBL4177711
